Values compiled from ChEMBL document CHEMBL4330087.

test system: Ribosomal RNA A-site; assay: Displacement of F-NEO from human cytosolic rRNA-A site after 10 to 20 mins by fluorescence assay relative to NEO; format: nucleic-acid assay; parameters: concentration or dose not given beside the values
Would you mind telling me the reported inhibition of each entry?
Write the answer as a number in %, unit excluded.

Task item: What inhibition value was documented for this compound, NC[C@@H]1O[C@H](O[C@H]2[C@@H](O)[C@H](O[C@@H]3[C@@H](O)[C@H](N)C[C@H](N)[C@H]3O[C@H]3O[C@H](CN)[C@@H](O)[C@H](O)[C@H]3N)O[C@@H]2CSCCNC(=O)Cc2ccc3ccc4cccc5ccc2c3c45)[C@H](N)[C@@H](O)[C@@H]1O ?
Reply: 114

Task item: Also check NC[C@@H]1O[C@H](O[C@H]2[C@@H](O)[C@H](O[C@@H]3[C@@H](O)[C@H](N)C[C@H](N)[C@H]3O[C@H]3O[C@H](CN)[C@@H](O)[C@H](O)[C@H]3N)O[C@@H]2CSCCNC(=O)CCc2ccc3ccc4cccc5ccc2c3c45)[C@H](N)[C@@H](O)[C@@H]1O
Reply: 91

----------
test system: Staphylococcus aureus; assay: Antibacterial activity against methicillin-resistant Staphylococcus aureus A960649 after 15 to 20 hrs by CLSI protocol based microdilution assay; assay type: functional
Would you mind telling me the reported MIC of each entry?
Write the answer as a number in µM, unit excluded.

Task item: What MIC value was documented for this compound, NC[C@@H]1O[C@H](O[C@H]2[C@@H](O)[C@H](O[C@@H]3[C@@H](O)[C@H](N)C[C@H](N)[C@H]3O[C@H]3O[C@H](CN)[C@@H](O)[C@H](O)[C@H]3N)O[C@@H]2CO)[C@H](N)[C@@H](O)[C@@H]1O [FRAMYCETIN] ?
Reply: 100

Task item: Also check NC[C@@H]1O[C@H](O[C@H]2[C@@H](O)[C@H](O[C@@H]3[C@@H](O)[C@H](N)C[C@H](N)[C@H]3O[C@H]3O[C@H](CN)[C@@H](O)[C@H](O)[C@H]3N)O[C@@H]2CSCCNC(=O)CCCc2ccc3ccc4cccc5ccc2c3c45)[C@H](N)[C@@H](O)[C@@H]1O
Reply: 12.5

Task item: Also check NC[C@@H]1O[C@H](O[C@H]2[C@@H](O)[C@H](O[C@@H]3[C@@H](O)[C@H](N)C[C@H](N)[C@H]3O[C@H]3O[C@H](CN)[C@@H](O)[C@H](O)[C@H]3N)O[C@@H]2CSCCNC(=S)NCCCCCCNC(=O)CCCc2ccc3ccc4cccc5ccc2c3c45)[C@H](N)[C@@H](O)[C@@H]1O
Reply: 25

Task item: Also check NC[C@@H]1O[C@H](O[C@H]2[C@@H](O)[C@H](O[C@@H]3[C@@H](O)[C@H](N)C[C@H](N)[C@H]3O[C@H]3O[C@H](CN)[C@@H](O)[C@H](O)[C@H]3N)O[C@@H]2CSCCNC(=O)Cc2ccc3ccc4cccc5ccc2c3c45)[C@H](N)[C@@H](O)[C@@H]1O
Reply: 12.5

Task item: Also check NC[C@@H]1O[C@H](O[C@H]2[C@@H](O)[C@H](O[C@@H]3[C@@H](O)[C@H](N)C[C@H](N)[C@H]3O[C@H]3O[C@H](CN)[C@@H](O)[C@H](O)[C@H]3N)O[C@@H]2CNC(=O)CCCc2ccc3ccc4cccc5ccc2c3c45)[C@H](N)[C@@H](O)[C@@H]1O
Reply: 12.5
